Below, each of the compounds is paired with its reported activity, negative = inhibition value.
procedureSummary: qHTS profiling for inhibitors of Plasmodium falciparum proliferation (AID 504749);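 further: 0% = DMSO vehicle and full inhibition = artemisinin control; nearly all actives have a fitted effect of over 60% in size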
measurementSetup: P. falciparum in erythrocytes, SYBR Green DNA, 72 h; at 12.8 µM (top of the series); parasite line B
Protocol: NIH National Institute of Allergy and Infectious Diseases [NIAID] NIH Chemical Genomics Center [NCGC] […] Because mature erythrocytes lack DNA, only Plasmodium-derived DNA is detected. NCGC Assay Protocol Summary: The SYBR Green viability assay was adapted from a method described previously (Plouffe et al., 2008). […] The following morning, fluorescence intensity at 485(14) nm excitation and 535(25) nm emission wavelengths was measured on an EnVision (Perkin Elmer) plate reader. […]
Results filed as inconclusive are left out. The source made the active and inactive calls. The call rests on the fitted dose curve; in most records, active means well fitted inhibition curve with a large enough effect; inconclusive means small, poorly fitted or top-dose-only effect; inactive means flat fitted curve, though single readings scatter.
endpoint: activity, negative = inhibition

# smiles, endpoint, endpointResult
data = [
    ("CCC(=O)O[C@H]1CC[C@H]2[C@@H]3CCC4=CC(=O)CC[C@]4(C)[C@H]3CC[C@]12C", "activity, negative = inhibition", "12.2% (inactive)"),
    ("COc1ccc(CN2CCNCC2)c(OC)c1OC", "activity, negative = inhibition", "4.48% (inactive)"),
    ("NC(=O)CN1CCCC1=O", "activity, negative = inhibition", "13.3% (inactive)"),
    ("CC(C)[N+](C)(CCC(C(N)=O)(c1ccccc1)c1ccccc1)C(C)C", "activity, negative = inhibition", "4.79% (inactive)"),
]

----------
procedureSummary: qHTS of pediatric cancer cell lines to identify multiple opportunities for drug repurposing: Primary screen for control Hh wild type fibroblast cells (AID 1347106); further: nearly all actives have a fitted effect of over 55% in size
measurementSetup: Hh wild-type fibroblast viability, CellTiter-Glo luminescence, 48 h; series mostly up to 46 µM
Records with an inconclusive call do not appear. Calls of active or inactive are those of the source. Calls follow the shape of the dose curve; as a rule, active = well fitted cell-killing curve with a large enough effect; inconclusive = small, poorly fitted or top-dose-only effect; inactive = flat fitted curve, though single readings scatter.
Classes used: true (1) (active), false (0) (inactive)

# compound, classification
rows = [
    ("CCOC(C(=O)OCCN(C)C)(c1ccccc1)c1ccccc1", "false (0)"),
    ("C=CCN1CC[C@]23CCCC[C@H]2[C@H]1Cc1ccc(O)cc13", "false (0)"),
    ("CC(C)=C[C@@H]1[C@@H](C(=O)OCc2coc(Cc3ccccc3)c2)C1(C)C", "false (0)"),
    ("C=CCOC(Cn1ccnc1)c1ccc(Cl)cc1Cl (stereo not drawn)", "false (0)"),
    ("Cc1nnc2n1-c1sc(CCC(=O)N3CCOCC3)cc1C(c1ccccc1Cl)=NC2", "false (0)"),
    ("CCO[C@H]1O[C@@H]2OC3(C)CC[C@H]4[C@H](C)CC[C@@H]([C@H]1C)[C@@]24OO3", "false (0)"),
    ("COc1ccc(OC)c(CC(C)N)c1 (stereo not drawn)", "false (0)"),
    ("CN(C)C(=O)Oc1cc(OC(=O)N(C)C)cc(C(O)CNC(C)(C)C)c1 (stereo not drawn)", "false (0)"),
    ("CC(CC(C#N)(c1ccccc1)c1ccccc1)N(C)C (stereo not drawn)", "false (0)"),
    ("CC1COC2(c3ccccc3Cl)c3cc(Cl)ccc3NC(=O)CN12 (stereo not drawn)", "false (0)"),
    ("CCCOC(=O)Cc1ccc(OCC(=O)N(CC)CC)c(OC)c1", "false (0)"),
    ("COc1ccc2c3c1O[C@H]1[C@@H](O)C=C[C@H]4[C@@H](C2)N(C)CC[C@@]341", "false (0)"),
    ("CNC(=O)NC(O)C(Cl)(Cl)Cl (stereo not drawn)", "false (0)"),
    ("C#C[C@]1(O)CC[C@H]2[C@@H]3CCC4=CC(=O)CCC4=C3C=C[C@@]21CC", "false (0)"),
    ("C[N+](C)(C)CCOC(=O)C(O)(c1ccccc1)c1ccccc1", "false (0)"),
    ("CN1C2CCC(C)(C)C1CC(OC(=O)C(O)(c1cccs1)c1cccs1)C2 (stereo not drawn)", "false (0)"),
    ("O=C(CCCN1CCC(n2c(=O)[nH]c3ccccc32)CC1)c1ccc(F)cc1", "false (0)"),
    ("C[C@]12CC[C@H]3[C@@H](CCC4=CC(=O)CC[C@@H]43)[C@@H]1CC[C@@H]2O", "false (0)"),
    ("COc1ccc(CN2CCNCC2)c(OC)c1OC", "false (0)"),
    ("O=C(O)CCCCCCNC1c2ccccc2CCc2ccccc21", "false (0)"),
    ("CNC(C)Cc1ccc2c(c1)OCO2 (stereo not drawn)", "false (0)"),
    ("CCCCCCCCC(=O)NCc1ccc(O)c(OC)c1", "false (0)"),
    ("COc1cc(CC#N)cc(OC)c1OC", "false (0)"),
    ("CC(C)(C)OC(=O)c1ncn2c1[C@@H]1CCCN1C(=O)c1c(Br)cccc1-2", "false (0)"),
    ("C=CC[C@]1(O)CC[C@H]2[C@@H]3CCC4=CC(=O)CCC4=C3C=C[C@@]21C", "false (0)"),
    ("COP(=S)(OC)Oc1ccc(S(N)(=O)=O)cc1", "false (0)"),
    ("CN1[C@@H]2CC[C@H]1CC(OC(=O)c1cc(Cl)cc(Cl)c1)C2 (stereo partly drawn)", "false (0)"),
    ("CCC1(c2cccc(O)c2)CCCCN(C)C1 (stereo not drawn)", "false (0)"),
    ("OC(c1ccccc1)(c1ccccc1)C1CCNCC1", "false (0)"),
    ("CN1C(=O)CN=C(c2ccccc2)c2cc(Cl)ccc21", "false (0)"),
    ("c1ccc2c(c1)Sc1ccccc1N2CC1CN2CCC1CC2 (stereo not drawn)", "true (1)"),
    ("CCCCCCCCCCCC[N+](C)(C)CCOc1ccccc1", "false (0)"),
    ("O=C(CBr)Nc1ccc(Cl)cc1C(=O)c1ccccc1F", "false (0)"),
    ("CCOC(=O)C1(c2ccccc2)CCN(CCc2ccc(N)cc2)CC1", "false (0)"),
    ("CN(C)CCc1c[nH]c2cccc(O)c12", "false (0)"),
    ("CN(C)C(=S)SSC(=S)N(C)C", "true (1)"),
    ("CCC(=O)OC1(c2ccccc2)CCN(C)CC1", "false (0)"),
    ("CCCN(CCC)CCc1c[nH]c2ccccc12", "false (0)"),
    ("C[C@@H]1C[C@@H]([C@H](O)CC2CC(=O)NC(=O)C2)C(=O)[C@@H](C)C1", "false (0)"),
    ("CC1N=C(N)OC1c1ccccc1 (stereo not drawn)", "false (0)"),
    ("CCN(CC)Cc1nccn1-c1ccc([N+](=O)[O-])cc1C(=O)c1ccccc1Cl", "false (0)"),
    ("OC(O)C(Cl)(Cl)Cl", "false (0)"),
    ("CCc1ccc(C2CCNCC2)cc1", "false (0)"),
    ("CCC(OC(C)=O)C(CC(C)NC)(c1ccccc1)c1ccccc1 (stereo not drawn)", "false (0)"),
    ("O=c1n(Cl)c(=O)n(Cl)c(=O)n1Cl", "false (0)"),
    ("C[C@H](CN1CCOCC1)C(C(=O)N1CCCC1)(c1ccccc1)c1ccccc1", "false (0)"),
    ("Clc1ccc(C(OCCN2CCCCC2)c2ccccc2)cc1 (stereo not drawn)", "false (0)"),
    ("NC(=O)OCCCc1ccccc1", "false (0)"),
]
